# Tgt: Glutathione S-transferase omega-1 (Homo sapiens) (UniProt P78417)
# Sequence (P78417 whole entry, looked up): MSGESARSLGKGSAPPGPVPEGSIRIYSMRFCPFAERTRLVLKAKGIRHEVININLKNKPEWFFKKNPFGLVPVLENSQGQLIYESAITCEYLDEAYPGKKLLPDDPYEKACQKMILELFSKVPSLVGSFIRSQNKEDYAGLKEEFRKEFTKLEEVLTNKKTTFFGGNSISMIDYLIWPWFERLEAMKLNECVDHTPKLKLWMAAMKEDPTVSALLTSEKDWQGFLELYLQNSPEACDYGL
# Measurement description: inhibitors of recombinant GSTO1, primary screen, counter-screen for RBBP9 inhibitor project, biochemical, fluorescence polarization (AID 1974);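 note: 0% = GSTO1-1 with DMSO and 100% = wells lacking GSTO1-1 enzyme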
# Cond: recombinant GSTO1, activity-based probe fluorescence polarization; at 5.96 µM; hits give high values
Hit rate of the full screen: of about 300,000 compounds, about 3,200 (1.1%) were called active. The sample as a whole holds a higher share of actives than the screen did.
Property label: inhibition (%)
Write the number in % without appending the unit.

See these solved cases before continuing.
CCOC(=O)C(C)N(c1ccccc1Cl)S(C)(=O)=O (stereo not given)    2.86
CCC(C)c1ccccc1N1CC(C(=O)N2CCN(S(=O)(=O)c3ccc(F)cc3)CC2)CC1=O (stereo not given)    2.71
CC1(C)C/C(=N/Nc2ccc([N+](=O)[O-])cc2[N+](=O)[O-])C(C)(C)O1    -2.6
Cc1cc(C)n2nc(C(=O)OCC(=O)N(CCC#N)c3ccc(F)cc3)nc2n1    7.91

QUERY: Return value of inhibition for input Cc1ccc(C(=O)N/N=C/c2cccc3ccccc23)cn1 , no commentary.
RESULT: 0.98

###

Catalogue of inhibition values
# Tgt: Glutathione S-transferase omega-1 (Homo sapiens)
# Measurement description: inhibitors of recombinant GSTO1, primary screen, counter-screen for RBBP9 inhibitor project, biochemical, fluorescence polarization (AID 1974);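 note: 0% = GSTO1-1 with DMSO and 100% = wells lacking GSTO1-1 enzyme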
# Cond: recombinant GSTO1, activity-based probe fluorescence polarization; at 5.96 µM; hits give high values
The whole screen tested about 300,000 compounds, of which about 3,200 (1.1%) were called active. For the sample, actives were picked, then their nearest neighbours and some compounds at random.
Write the number in % without appending the unit.

Cc1cc(=O)[nH]c(SCc2ccc(Cl)cc2)n1    -4.37

Let us examine a further case.
QUERY: Return value of inhibition for input COCCCN(C(=O)CSCc1ccc(C)cc1)c1c(N)n(Cc2ccccc2)c(=O)[nH]c1=O , no commentary.
RESULT: -12.2

###

# Tgt: Glutathione S-transferase omega-1 (Homo sapiens)
# Measurement description: inhibitors of recombinant GSTO1, primary screen, counter-screen for RBBP9 inhibitor project, biochemical, fluorescence polarization (AID 1974);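 note: 0% = GSTO1-1 with DMSO and 100% = wells lacking GSTO1-1 enzyme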
# Cond: recombinant GSTO1, activity-based probe fluorescence polarization; at 5.96 µM
About 3,200 (1.1%) of roughly 300,000 compounds were called active.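 How the source made its calls: active means inhibition above the campaign mean inhibition plus 3 SD (cut at about 35% in these data); inactive means the rest.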 This excerpt belongs to a sample that is enriched for actives.
Choose one outcome from this list and give only that: 1 = active, -1 = inactive

O=C(CCCn1c(SCC(=O)c2ccccc2)nc2ccccc2c1=O)NCC1CCCO1 (stereo not drawn)    -1
Cc1ccc(NC(=O)C2CC(=O)N(c3ccc4c(c3)OCCO4)C2)cc1S(=O)(=O)N1CCCCCC1 (stereo not drawn)    -1
CCOc1ccc(S(=O)(=O)N2CCN(C(=S)NCC3CCCO3)CC2)cc1 (stereo not drawn)    -1
COC(C[C@@H](O)C[C@H](O)[C@H](C)OCc1ccccc1)OC    -1
COc1ccc(N2CCN(C(C)=C3C(=O)c4ccccc4C3=O)CC2)cc1    -1
O=[N+]([O-])c1ccc(N=Cc2c(O)ccc3ccccc23)cc1    1
Cc1oc2c(c1C(=O)N1CCOCC1)C(=O)c1ccccc1C2=O    1
O=C(NCCCc1ccccc1)C1CCC(=O)N(CCc2ccc(Cl)cc2)C1 (stereo not drawn)    -1
Cc1ccc2nc(NC(=O)CSc3nc(=O)n(CCCN(C)C)c4c3CCC4)sc2c1    -1
CN(CC1CCCO1)S(=O)(=O)c1ccc(C(=O)Nc2ccc(F)cc2)cc1 (stereo not drawn)    -1

QUERY: Field: outcome | Entry: COC1=C(N2CCOCC2)C(=O)c2ccccc2C1=O
RESULT: 1

QUERY: Field: outcome | Entry: COc1ccc(Cl)cc1NC(=O)CN1CCN(C(=O)N2CCOCC2)CC1
RESULT: -1

QUERY: Field: outcome | Entry: C#CCOCCOCCOCCNc1nc(N2CCN(C(=O)CCCCCCCCCCNC(=O)Cn3cc(CCCCCN)nn3)CC2)nc(N2CCN(C(=O)CCCCCCCCCCNC(=O)[C@H](CO)n3cc(CCCSC)nn3)CC2)n1
RESULT: -1

###

# Tgt: Glutathione S-transferase omega-1 (Homo sapiens)
# Measurement description: inhibitors of recombinant GSTO1, primary screen, counter-screen for RBBP9 inhibitor project, biochemical, fluorescence polarization (AID 1974);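 note: 0% = GSTO1-1 with DMSO and 100% = wells lacking GSTO1-1 enzyme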
# Cond: recombinant GSTO1, activity-based probe fluorescence polarization; at 5.96 µM; hits give high values
The whole screen tested about 300,000 compounds, of which about 3,200 (1.1%) were called active. The list comes from a sample in which actives are over-represented; it also holds close analogues and randomly drawn compounds.
Property label: inhibition (%)
Write the number in % without appending the unit.

COc1cccc(N2CC(NC(=O)c3ccc4ccccc4c3)CC2=O)c1 (stereo not drawn)    -0.99
CN(C)CCn1c2c(c(SCC(=O)NCc3ccccc3)nc1=O)CCC2    0.7

Let us examine a further case.
QUERY: Return value of inhibition for input CCN(CCCNC(=O)CCn1c(=O)[nH]c2ccsc2c1=O)c1ccccc1 , no commentary.
RESULT: 0.71

###

# Tgt: Glutathione S-transferase omega-1 (Homo sapiens) (UniProt P78417)
# Measurement description: inhibitors of recombinant GSTO1, primary screen, counter-screen for RBBP9 inhibitor project, biochemical, fluorescence polarization (AID 1974);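 note: 0% = GSTO1-1 with DMSO and 100% = wells lacking GSTO1-1 enzyme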
# Cond: recombinant GSTO1, activity-based probe fluorescence polarization; at 5.96 µM
About 3,200 (1.1%) of roughly 300,000 compounds were called active.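 The calls were made as follows: active = inhibition above the campaign mean inhibition plus 3 SD (cut at about 35% in these data); inactive = the rest.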 What follows is part of a selection rich in actives, with near analogues and random picks from the rest.
Choose one outcome from this list and give only that: active, inactive

The examples below pair each entry with its known result.
O=C(Cc1cc(=O)[nH][nH]1)N/N=C/c1ccccc1[N+](=O)[O-]    active
CCN1CCN(c2ccc(S(=O)(=O)N3CCCCC3)cc2NC(=O)c2cccc(NC(C)=O)c2)CC1    inactive
CCC1(c2ccccc2)NC(=O)N(CC(=O)Nc2ccccc2C(=O)NC2CCCC2)C1=O (stereo unspecified)    inactive
CCCCN(C(=O)CCNC(=O)NC12CC3CC(CC(C3)C1)C2)c1c(N)n(CCCC)c(=O)[nH]c1=O    inactive

QUERY: Field: outcome | Entry: CCCC1C(=O)N2C(N(C)C)=Nc3ccc(C)cc3N2C1=O (stereo unspecified)
RESULT: inactive

QUERY: Field: outcome | Entry: CC1=C(N2CCN(c3ncccn3)CC2)CCC1=O
RESULT: inactive

QUERY: Field: outcome | Entry: Cc1ccsc1/C=N/NC(=O)Cc1cc(=O)[nH][nH]1
RESULT: active

QUERY: Field: outcome | Entry: CCN(CC(=O)NCc1cccs1)C(=O)c1ccc(OC)c(S(=O)(=O)N2CCOCC2)c1
RESULT: inactive

QUERY: Field: outcome | Entry: Cc1ccsc1C(=O)N/N=C/c1ccc([N+](=O)[O-])cc1
RESULT: inactive

QUERY: Field: outcome | Entry: O=C(CN1C(=O)NC2(CCCC2)C1=O)OCCOc1ccc(F)cc1
RESULT: inactive

QUERY: Field: outcome | Entry: O=C(c1cc(-c2ccc(Cl)s2)nc2ccccc12)N1CCOCC1
RESULT: inactive

###

# Tgt: Glutathione S-transferase omega-1 (Homo sapiens) (UniProt P78417)
# Measurement description: inhibitors of recombinant GSTO1, primary screen, counter-screen for RBBP9 inhibitor project, biochemical, fluorescence polarization (AID 1974);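 note: 0% = GSTO1-1 with DMSO and 100% = wells lacking GSTO1-1 enzyme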
# Cond: recombinant GSTO1, activity-based probe fluorescence polarization; at 5.96 µM; hits give high values
Among all 300,000 compounds or so, about 3,200 (1.1%) were called active. The full list was thinned out, with actives kept by preference.
Catalogue of inhibition values
Write the number in % without appending the unit.

See these solved cases before continuing.
CCC(C)N(C(=O)COC(=O)c1nc(Cl)ccc1Cl)C1CCS(=O)(=O)C1 (stereo not drawn)    -3.44
COc1ccc(S(=O)(=O)NCCCc2ccccc2)cc1    6.84
CCOC(=O)C1=C(c2ccc(OC)cc2)C(=O)c2ccccc2C1=O    40.5
CC1=CC(C)(C)Nc2ccc(OC(=O)CN3C(=O)C4CCCCC4C3=O)cc21 (stereo not drawn)    48.4
Nc1ccc2nc3c(=O)[nH]c(=S)[nH]c3nc2c1    53.3
COc1ccc(COC(=O)NC(C(=O)O)c2ccccc2)cc1 (stereo not drawn)    8.98
Fc1cccc(Cl)c1CSc1ccc(-c2ccco2)nn1    3.45

Let us examine a further case.
QUERY: Return value of inhibition for input COC(=O)c1ccc(CSc2nncn2N)cc1 , no commentary.
RESULT: 61

###

Catalogue of inhibition values
# Tgt: Glutathione S-transferase omega-1 (Homo sapiens)
# Measurement description: inhibitors of recombinant GSTO1, primary screen, counter-screen for RBBP9 inhibitor project, biochemical, fluorescence polarization (AID 1974);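 note: 0% = GSTO1-1 with DMSO and 100% = wells lacking GSTO1-1 enzyme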
# Cond: recombinant GSTO1, activity-based probe fluorescence polarization; at 5.96 µM; hits give high values
In all, about 300,000 compounds went through this assay and about 3,200 (1.1%) were called active. The list comes from a sample in which actives are over-represented; it also holds close analogues and randomly drawn compounds.

Oc1ccc(N=Nc2nccs2)c(O)c1    36.6% (active)
CCCS(=O)(=O)Nc1c(C(=O)O)[nH]c2ccccc12    0.73% (inactive)
CC1(C)Cc2ccccc2-c2nc(CN3CCOCC3)[nH]c(=O)c21    -0.05% (inactive)

QUERY: Return value of inhibition for input Oc1ccc2ccccc2c1N=Nc1nccs1 , no commentary.
RESULT: 52% (active)

QUERY: Return value of inhibition for input O=[N+]([O-])c1ccc(Sc2n[nH]c(-c3ccco3)n2)nc1 , no commentary.
RESULT: 5.75% (inactive)
